Assay Target: acetylcholine receptor
Measurement Protocol: SPR, receptor immobilized, peptide 10 uM
Recorded Metric: Binding affinity (RU)

KWFTRR [6mer-2-165]; 139
KWRRKK [6mer-2-161]; 154
RWQCKK [6mer-2-189]; 121
RQQTRR [6mer-2-171]; 139
KQLRKR [6mer-2-151]; 142
KGQYKK [6mer-2-148]; 145
KWYQKK [6mer-2-141]; 154
KWLLRR [6mer-2-178]; 133
RSFLRR [6mer-2-158]; 145
RGQYKR [6mer-2-199]; 137
KSRQKR [6mer-2-195]; 154
KLFRKK [6mer-2-139]; 149
RVRRKK [6mer-2-160]; 121
KRILKR [6mer-2-150]; 136
KSIRRK [6mer-2-144]; 133
RWVLRR [6mer-2-142]; 121
KQLLKR [6mer-2-146]; 135
